- ASSAY_SYSTEM: T1, Peptide-42 (cysteine pairing not given here; also: biotinylated, site not given here)
- T1 peptide: IDFCAMYHWPICDT
- METHOD_NOTES: ELISA, Fab on captured biotin-peptide
Where no end group is shown, it is not given here.
pEC50 overview
Just so you know, pEC50 here is -log10 of the concentration in molar units; reply with that number alone.

{"BINDER": "TBD-6 (LC I93A) (Fab, V domains shown, Fab; also called LC I93A mutant) VH: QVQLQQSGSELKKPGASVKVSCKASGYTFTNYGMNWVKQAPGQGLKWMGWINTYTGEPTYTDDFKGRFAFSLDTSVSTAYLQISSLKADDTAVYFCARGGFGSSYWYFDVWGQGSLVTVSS VL: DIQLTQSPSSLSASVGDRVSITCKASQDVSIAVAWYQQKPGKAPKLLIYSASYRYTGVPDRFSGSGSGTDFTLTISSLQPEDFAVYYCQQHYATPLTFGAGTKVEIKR", "pEC50": 8.24}
{"BINDER": "TBD-21 (HC F108A) (Fab, V domains shown, Fab; also called HC F108A mutant) VH: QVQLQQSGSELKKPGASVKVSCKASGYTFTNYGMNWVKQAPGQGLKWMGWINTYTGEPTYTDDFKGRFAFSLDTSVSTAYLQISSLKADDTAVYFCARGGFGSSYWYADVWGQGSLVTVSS VL: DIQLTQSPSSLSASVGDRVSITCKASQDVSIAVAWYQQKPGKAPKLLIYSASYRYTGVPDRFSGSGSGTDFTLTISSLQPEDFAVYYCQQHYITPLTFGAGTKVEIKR", "pEC50": 7.86}

Continue with the binder presented below.
Please report the recorded pEC50 for TBD-22 (HC D109A) (Fab, V domains shown, Fab; also called HC D109A mutant) VH: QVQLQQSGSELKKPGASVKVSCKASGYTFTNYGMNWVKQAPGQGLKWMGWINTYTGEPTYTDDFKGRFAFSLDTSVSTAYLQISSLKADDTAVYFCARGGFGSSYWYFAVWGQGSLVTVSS VL: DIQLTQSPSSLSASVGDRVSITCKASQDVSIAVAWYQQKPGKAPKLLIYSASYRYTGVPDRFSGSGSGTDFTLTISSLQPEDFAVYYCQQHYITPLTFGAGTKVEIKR .
9.10
